Exercise: for every item that follows, state its recorded melting point.

These solved cases illustrate the format of a correct answer.
- N#Cc1ccc(N2C(=O)[C@@H]3[C@H](O)CCCN3C2=O)c2ccccc12 (racemic): 243 °C
- CS(=O)(=O)N1CCN2C(=O)N(c3ccc(C#N)c4ccccc34)C(=O)C2C1 (racemic): 207 to 216 °C
- CC(C)(C)[C@H]1N(c2ccc(C#N)c3ccccc23)C(=O)[C@@H]2C[C@@H](O)CN21: 155 to 157 °C

Hi, could you look up melting point for each item in my list?
1. C[C@@]12C(=O)N(c3ccc(C#N)c4ccccc34)C(=O)N1CC[C@@H]2O
2. O=C1C2CCCCN2C(=O)N1c1ccc([N+](=O)[O-])c2ccccc12 (racemic)
3. N#Cc1ccc(N2C[C@@H]3[C@H](O)CCN3C2=O)c2ccccc12
4. N#Cc1ccc(N2CC3[C@@H](O)CCN3C2=O)c2ccccc12 (stereo partly drawn)

1. 234 to 235 °C
2. 190 to 192 °C
3. 226 to 228 °C
4. 226 to 228 °C

Hi, could you look up melting point for each item in my list?
1. O=C1C2C[C@@H](OCc3ccccc3)CN2C(=O)N1c1ccc([N+](=O)[O-])c2ccccc12 (stereo partly drawn)
2. C[C@]12C(=O)N(c3ccc(C#N)c4ccccc34)C(=O)N1CC[C@H]2O

["120 to 122 °C", "232 to 234 °C"]

###

Returns one of t or f; t when melting point is >= 200 °C.

• N#Cc1ccc(N2C(=O)[C@H]3[C@@H](O)CCCN3C2=O)c2ccccc12 = t
• CC(=O)O[C@@H]1CCN2C(=O)N(c3ccc(C#N)c4ccccc34)C(=O)[C@H]12 (racemic) = f
• N#Cc1ccc(N2C(=O)[C@H]3[C@@H](O)[C@@H](O)CN3C2=O)c2ccccc12 (stereo in doubt) = t

Turning to the following compound.
Would you say N#Cc1ccc(N2C(=O)[C@@H]3[C@H](O)[C@H](O)CN3C2=O)c2ccccc12 (stereo in doubt) shows melting point at minimum 200 °C?
t

###

Exercise: for every item that follows, state its recorded melting point.

These solved cases illustrate the format of a correct answer.
• CO[C@H]1CCN2C(=O)N(c3ccc(C#N)c4ccccc34)C(=O)[C@@H]12 (racemic) = 185 to 186 °C
• Cl.N#Cc1ccc(N2C(=O)C3CNCCN3C2=O)c2ccccc12 (racemic) = 200 °C
• N#Cc1ccc(N2C(=O)[C@@H]3[C@H](O)CCN3C2=S)c2ccccc12 = 215 to 216 °C

Hi, could you look up melting point for each item in my list?
1. CC(C)(C)OC(=O)N1CCN2C(=O)N(c3ccc(C#N)c4ccccc34)C(=O)C2C1 (stereo not drawn)
2. N#Cc1ccc(N2C(=O)C3=CCCN3C2=O)c2ccccc12
3. O=C1[C@H]2[C@@H](O)CCN2C(=O)N1c1ccc(Br)c2ccccc12 (racemic)

["222 to 224 °C", "230 to 232 °C", "204 to 206 °C"]
